procedure.details: PK model of AZD7687 plasma concentrations during rat OLTT (1-compartment)
Format: in vivo
conditions: male, Han-Wistar, plasma, oral, Table 1, free concentrations
reported.metric: clearance (mL/min)

>>> print(df.to_string())
                                   compound  measured_value
0  Cc1nc(C)c(-c2ccc(C3CCC(CC(=O)O)CC3)cc2)nc1C(N)=O (stereo not shown) [AZD7687]            12.2

---

procedure.details: Population PK model of AZD7687 plasma concentrations in SAD and MAD studies (2-compartment, first order absorption)
Format: in vivo
conditions: male, oral; human, using free concentrations in plasma; read-out: V (tvV1, central volume of distribution)
reported.metric: Vd

>>> df
                                   molecule  measured_value
0  Cc1nc(C)c(-c2ccc(C3CCC(CC(=O)O)CC3)cc2)nc1C(N)=O (stereo not shown) [AZD7687]           320 L

---

procedure.details: PK model of AZD7687 plasma concentrations during rat OLTT (1-compartment)
Type: in vivo
conditions: male, Han-Wistar, oral, supplement, free concentrations in plasma, read-out: tvCl (apparent clearance) (converted)
Procedure: Full description of the OLTT in the rat has been published previously.17 In brief, 53 male Han‐Wistar rats (∼230 g), previously maintained on a chow diet, were fasted for 14 hours. […] Six remaining animals were kept untreated and served as naive controls. Full description of all the PK models is provided in supplementary section S1. As PK data was only collected for 11h post dose, the ability to fit complex PK models was limited. […]
reported.metric: CL/F (mL/min/kg)

>>> print(df.to_string())
                                   molecule  measured_value
0  Cc1nc(C)c(-c2ccc(C3CCC(CC(=O)O)CC3)cc2)nc1C(N)=O (stereo not shown) [AZD7687]            12.2

The values you see were collected from paper PMC6408865.
